Source: patent US20220089784A1

- target_or_system: BoNT/B2 (Clostridium botulinum)
- test_description: yeast scFv FACS
pKd: −log10 of the molar value.
Quick rule for you: pKd at 8 or higher means Y, lower means N.

Study these solved cases before continuing.
| binder | classification |
| --- | --- |
| 18E5 scFv (scFv) scFv: EVQLQESGPELVKPGASVKISCKASGYTFTDHNMDWVKQSLGKSLEWIGDINPNNGGAVYNQNFKGKATLTVDKSSSTAYMELRSLTSEDTAVYYCARYGYYGYFDYWGQGTTLTVSSVDLKSGGSTSGSGKPGSGEGSSGSARQIVLTQSPAIMSASPGEKVTMTCRASSSVSSSYLHWYQQKPGSSPKLWIYSTSNLASGVPARFSGSGSGTSYSLTISSVEAEDAATYYCQQYDSSPSTFGAGTKLEIK | Y |
| 26D9 scFv (scFv) scFv: DVQLQESGAELVKPGASVKLSCKASGFTFTDYWMHWVKQRPGQGLEWIGMIHPYNGDNNYHEKFKSKATLTVDKSSSTAYMQLSSLTTEDSAVYYCVRNDYDPYYYALDYWGQGTSLTVSAVDLKSGGSTSGSGKPGSGEGSSGSARQIVLTQSPAIMSASPGEKVTMSCRASSSVSYVYWYQQKPGSSPKPWIYRTSNLASGVPVRFSGSGSGTSYSLTISRVEAEDAATYYCQQWSSYPPTFGGGTKLEIK | Y |
| 19B6 scFv (scFv) scFv: QVQLQQSGAELVKPGASVKISCKASGYTFTDNYINWVKQRPGQGLEWIGWIHPGSGNAKYNEKFRAKATLTVDTSSNTAYMQLSSLTSEDSAVYFCARVGFRVNFDYWGQGTTLTVSSVDLKSGGSTSGSGKPGSGEGSSGSARQIVLTQSPAIMSASPGEKVTMTCSASSSLSYVHWYQQKPGSSPKPWIYATSNLVSGVPARFSGSRSGTSYSLTISSMEAEDAATYYCQQWSSYPPTFGAGTKLEIK | N |
| 26G5 scFv (scFv) scFv: EVQLQESGPGLAKPSQTLSLTCSVTGYSITSDYWNWIRKFPGNKLEYMGYISYSGSTYYNPSLKSRISITRDTSKNQYYLQLNSVTTEDTATYYCARSFYDGYLYFDYWGQGTTVTVSSVDLKSGGSTSGSGKPGSGEGSSGSAREIVLTQSPAILSASPGEKVTMTCSASSSVSYMYWYQQKPGSSPRLLIYDTSNLASGVPARFSGSGSGTSYSLTISRVEAEDAATYYCQQWSSYPPTFGDGTRLEIK | N |
| 18D10 scFv (scFv) scFv: QVQLKQSGIEVMKPGASVKLSCKASGYPFTAYWIEWVKQRPGHGLEWIGEFLPGGISTNFNEKFKGKATFSADTSSNSAYIQLNSLTTEDSAIYYCVLTGTGFDYWGQGTSVTVSSVDLKSGGSTSGSGKPGSGEGSSGSARENVLTQSPAIMSASPGEKVTMTCSASSSVSYMHWYQQKSGTSPKRWIYDTSKLASGVPARFSGSGSGTSYSLTISSMEAEDAATYYCQQWSSNPLTFGAGTKLELK | Y |
| 19D22 scFv (scFv) scFv: QIQLLQSGAELVRPGTSVKMSCKAAGYPFTSYWMGWVKQRPGHGLEWIGDIYPGGPYTNYNEKFKGKATLTADTSSSTAYMQFSSLTSEDSAIYYCALYGQVGSYAMDYWGQGTSVTVSSVDLKSGGSTSGSGKPGSGEGSSGSARQIVLTQSPAIMSASPGEKVTMTCSASSSVSYMYWYQQKPGSSPRLLIYDTSNLASGVPVRFSGSGSGTSYSLTISRMEAEDAATYYCQQWSSYPPITFGAGTKLEIK | Y |
| 26E6 scFv (scFv) scFv: EVQLQQSGPELVKPGASVKISCKASGYTFADYYINWVKQSHGKSLEWIGDFNPNNGDHSYNQKFKDKATLTVDESSNTAYMELRSLTSEDSAVYYCTREFYYYFDVWGTGTTVTVSSVDLKSGGSTSGSGKPGSGEGSSGSARDIVMSQSPLSLPVSLGDQAFISCRFSQSIVHSNGNTYLEWYLQKPGQSPKLLIYKVSNRFSGVPDRFSGSGSGTDFTLKISRVEAEDLGVYYCFQGSHVPYTFGGGTKLEIK | N |
| 16B3 scFv (scFv) scFv: EVQLQQSGPELVKPGASVKITCKASGYTFTDNNMDWVKQSHGKSLEWIGDINPNNGGSIYNQKFKGKASLTLDKSSSTAYMELRSLTSEDTAVYYCARWGYYGSLAYWGQGTLVTVSSVDLKSGGSTSGSGKPGSGEGSSGSARQNVLTQSPAIMSASPGEKVTMTCSASSSVSSRYLHWYQQKSGASPKLWIYGTSNLASGVPARFSGSGSGTSYSLTISSVEAEDAATYYCQQYHSDPLTFGGGTKLEIK | Y |

Moving on to the next binder.
QUERY: API: above_or_equal(metric=pKd, cutoff=8) for item 26B2 scFv (scFv) scFv: DVQLQESGPELVKPGASVKISCKASGYTFADYYINWVKQSHGKSLEWIGDFNPNNGDHSYNQKFKDKATLTVDESSNTAYMELRSLTSEDSAVYYCTREFYYYFDVWGTGTSVTVSSVDLKSGGSTSGSGKPGSGEGSSGSARDIEMTQTPAIMSASPGEKVTMTCSASSSVSSRYLHWYQQKSGASPKLWIYGTSNLASGVPARFSGSGSGTSYSLTISNVEAEDAATYYCQQYHSDPLTFGAGTKLEIK
RESULT: Y
